# SYSTEM NAME: bombesin receptor of rat brain membranes (rat)
# PROTOCOL TEXT: 125I-Bombesin competition, rat brain membranes
Square brackets hold non-standard residues; d marks the D form. Ends that are not written are not given here. pGlu = O=C1CC[C@@H](C(=O)O)N1; Nle = CCCC[C@H](N)C(=O)O
EXPERIMENTAL READOUT: % Inhibition

1. [pGlu]QRLGNQWAVGCHL[Nle]-NH2 (also: Re(V)=O N3S1 chelate at Cys12 (from ReOCl3(PPh3)2)) [metallopeptide 6-4] = 70%
2. [dF]QWAVGCLL-NH2 (not fully specified (bridges); printed as D-Phe-Gln-Trp-Ala-Val-Gly-Cys-Leu-Leu-NH2; also: Re(V)=O chelate (N3S1) at Cys7) [metallopeptide 9-3] = 70%
3. [dF]QWAVGHLL-NH2 (N-terminus assumed; SMILES CC(C)C[C@H](NC(=O)[C@H](CC(C)C)NC(=O)[C@H](Cc1c[nH]cn1)NC(=O)CNC(=O)[C@@H](NC(=O)[C@H](C)NC(=O)[C@H](Cc1c[nH]c2ccccc12)NC(=O)[C@H](CCC(N)=O)NC(=O)[C@H](N)Cc1ccccc1)C(C)C)C(N)=O) [bombesin analog parent polypeptide D-Phe-Gln-Trp-Ala-Val-Gly-His-Leu-Leu-NH2] = 92%
4. XQRLGNQCAVGHLX (Pyr 1; Nle 14; C-terminal amide; Re complexed at Cys 8) [metallopeptide 7-7] = -2%
5. [dF]QWAVGHLCL-NH2 (bridge (positions not given here) via ReOCl3(PPh3)2; also: oxorhenium(V) N3S1 tetradentate complex at Cys 9) [metallopeptide 8-2] = 75%
6. [dF]QWAVGHLLC-NH2 (bridge (positions not given here) via ReOCl3(PPh3)2; also: oxorhenium(V) N3S1 tetradentate complex at Cys 10) [metallopeptide 8-1] = 39%
7. QWAVCHL-NH2 (also: bridge at 5 via oxorhenium(V) N3S1 chelate, other end not in the chain) [metallopeptide 11-7] = 5%
8. XQRLGNQWAVGHLM (not fully specified; pyroglutamic acid (Pyr) 1; C-terminal amide) [bombesin parent polypeptide Pyr-Gln-Arg-Leu-Gly-Asn-Gln-Trp-Ala-Val-Gly-His-Leu-Met-NH2] = 106%
9. XQRLGNQWAVGHLC (Pyr 1; C-terminal amide; Re complexed at Cys 14) [metallopeptide 7-1] = 73%
